Values from patent US8669352

Target: T1, human CD40 (human, UniProt P25942 21-277)
T1 construct: whole, on cells; also called huCD40; CD40 expressed on JY cells
T1 sequence (P25942 21-277): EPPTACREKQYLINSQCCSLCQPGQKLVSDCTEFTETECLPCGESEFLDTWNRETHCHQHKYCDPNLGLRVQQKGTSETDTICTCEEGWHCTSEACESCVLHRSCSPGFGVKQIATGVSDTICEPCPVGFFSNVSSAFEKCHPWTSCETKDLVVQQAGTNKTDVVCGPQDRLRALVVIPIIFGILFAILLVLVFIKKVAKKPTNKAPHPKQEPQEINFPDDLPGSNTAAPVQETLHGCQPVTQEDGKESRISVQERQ
Test: FACS on JY cells expressing CD40; 100 µl PER.C6 transient supernatant harvested after 48 h (antibody concentration not equalised), FITC anti-human IgG 1/100; in the same figure Mock Control Mean 11.25 / Median 8.74, FACS control (secondary only) Mean 10.18 / Median 8.74 [Condt.]
Experimental: FIG. 8. FACS analysis using JY cells. PER.C6 cell supernatant of the transient expressed variants (Q5E, K13A, E16Q, T17S, I29L, 37V, P45L, M48L, STS60NSA, T68S, S79F, and T108S) of 5D12 was harvested after 48 h. […] By FACS analysis the antigen specificity of the expressed antibodies was analyzed. […] Finally cell samples were measured on a FACScan (BD).
Measured attribute: Median (FL1-H)
Your answer is read as FL1-H, so omit the unit and give the number.

Determine its reported Median (FL1-H): STS60NSA variant of deimmunised 5D12 (antibody, human IgG4, V domains shown, VH on a human IgG4 backbone) VH: QVKLQESGPGLVKPSETLSITCTVSGFSISRYSVYWIRQPPGKGPEWMGMMWGGGSTDYNSALKSRLTISKDTSKSQVSLKMNSLRTDDTAMYYCVRTDGDYWGQGTTVTVSS VL: ELQLTQSPLSLPVTLGQPASISCRSSQSLANSNGNTYLHWYLQRPGQSPRLLIYKVSNRFSGVPDRFSGSGSGTDFTLKISRVEAEDVGVYYCSQSTHVPWTFGGGTKLEIKR
58.8

Complete the entry with Median (FL1-H) for T68S variant of deimmunised 5D12 (antibody, human IgG4, V domains shown, VH on a human IgG4 backbone) VH: QVKLQESGPGLVKPSETLSITCTVSGFSISRYSVYWIRQPPGKGPEWMGMMWGGGSTDYSTSLKSRLSISKDTSKSQVSLKMNSLRTDDTAMYYCVRTDGDYWGQGTTVTVSS VL: ELQLTQSPLSLPVTLGQPASISCRSSQSLANSNGNTYLHWYLQRPGQSPRLLIYKVSNRFSGVPDRFSGSGSGTDFTLKISRVEAEDVGVYYCSQSTHVPWTFGGGTKLEIKR
34

Indicate its recorded Median (FL1-H); the binder in question is T108S variant of deimmunised 5D12 (antibody, human IgG4, V domains shown, VH on a human IgG4 backbone) VH: QVKLQESGPGLVKPSETLSITCTVSGFSISRYSVYWIRQPPGKGPEWMGMMWGGGSTDYSTSLKSRLTISKDTSKSQVSLKMNSLRTDDTAMYYCVRTDGDYWGQGTSVTVSS VL: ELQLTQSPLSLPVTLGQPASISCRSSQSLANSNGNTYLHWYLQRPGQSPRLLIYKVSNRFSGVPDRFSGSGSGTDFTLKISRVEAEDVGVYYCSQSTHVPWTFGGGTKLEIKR
85.8

Quickly give me recorded Median (FL1-H) for M48L variant of deimmunised 5D12 (antibody, human IgG4, V domains shown, VH on a human IgG4 backbone) VH: QVKLQESGPGLVKPSETLSITCTVSGFSISRYSVYWIRQPPGKGPEWLGMMWGGGSTDYSTSLKSRLTISKDTSKSQVSLKMNSLRTDDTAMYYCVRTDGDYWGQGTTVTVSS VL: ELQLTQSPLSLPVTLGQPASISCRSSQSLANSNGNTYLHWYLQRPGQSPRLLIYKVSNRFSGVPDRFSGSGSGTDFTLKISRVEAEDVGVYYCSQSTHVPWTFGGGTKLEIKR
72.3

Entry P45L variant of deimmunised 5D12 (antibody, human IgG4, V domains shown, VH on a human IgG4 backbone) VH: QVKLQESGPGLVKPSETLSITCTVSGFSISRYSVYWIRQPPGKGLEWMGMMWGGGSTDYSTSLKSRLTISKDTSKSQVSLKMNSLRTDDTAMYYCVRTDGDYWGQGTTVTVSS VL: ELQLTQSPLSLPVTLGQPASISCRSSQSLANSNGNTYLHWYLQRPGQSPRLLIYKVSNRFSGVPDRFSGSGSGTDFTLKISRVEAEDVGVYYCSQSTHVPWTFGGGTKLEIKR needs its Median (FL1-H) filled in; supply it.
74.3

Fill in Median (FL1-H) for record S79F variant of deimmunised 5D12 (antibody, human IgG4, V domains shown, VH on a human IgG4 backbone) VH: QVKLQESGPGLVKPSETLSITCTVSGFSISRYSVYWIRQPPGKGPEWMGMMWGGGSTDYSTSLKSRLTISKDTSKSQVFLKMNSLRTDDTAMYYCVRTDGDYWGQGTTVTVSS VL: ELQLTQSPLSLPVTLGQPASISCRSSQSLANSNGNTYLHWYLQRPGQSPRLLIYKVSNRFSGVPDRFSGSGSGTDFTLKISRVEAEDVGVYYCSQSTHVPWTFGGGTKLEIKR
82
